System: SF-539
Method: NCI human cancer cell line screen, antiproliferative activity, CNS SF-539
Type: cell-based
Measurement context: concentration corresponding to 50% growth inhibition, read-out: cytotoxicity GI50, CNS SF-539
I'd be grateful if you could share measured GI50 for these entries.
Answers are plain numbers, in µM.

Compound	Endpoint	Observed
CC1CCCC=CC2CC(O)CC2C(O)[C@H](CC(=O)O)CC(=O)O1 (stereo partly drawn)	GI50	34
CC1CCCC=CC2CC(O)CC2C(O)[C@H]([S+]([O-])CCN)CC(=O)O1 (stereo partly drawn)	GI50	0.02
CC1CCCC=CC2CC(O)CC2C(O)[C@H]([S+]([O-])CCO)CC(=O)O1 (stereo partly drawn)	GI50	0.058
COC(=O)CSC1CC(=O)OC(C)CCCC=CC2CC(O)CC2C1O (stereo not drawn)	GI50	24
CC1CCCC=CC2CC(O)CC2C(O)C(SCCN(C)C)CC(=O)O1 (stereo not drawn)	GI50	0.39

# context switch: different compound, same GI50
Lab note: CC1CCCC=CC2CC(O)CC2C(O)C(SCCO)CC(=O)O1 (stereo not drawn) gave GI50 of 23

These entries and their values trace back to patent US6362218B1.
